Sourced from ChEMBL document CHEMBL1201862

Tested on: HCT-15
MEASURED METRIC: GI50 (µM)
Answers are plain numbers, in µM.

Guide cases for GI50, answers given:
MOLECULE	GI50 [µM]
N#COc1ccc(Oc2ccc(OC#N)cc2)cc1	42.8
Cc1ccc(OCC2OC(n3cnc4nc(Cl)nc(Cl)c43)CC2Oc2ccc(C)cc2)cc1 (centres undefined)	2.36
CCOC(=O)c1c(-c2ccc(Cl)cc2)c(C#N)c(=S)n(C2OC(CO)C(O)C(O)C2O)c1-c1ccccc1 (centres undefined)	29.9
COC(=O)NC(C(F)(F)F)(C(F)(F)F)P1(=O)OCCCO1	22.8
N#CC1(C2SCC[S+]2[O-])C2=C(C(=O)c3ccccc3C2=O)N2CCCC21 (centres undefined)	2.21

Report GI50 for every entry below.
1. Cc1ccc(O)c(C(=O)CCCC(=O)c2cc(C)ccc2O)c1
2. C=C1CC2(CC(c3ccccc3C)OC(c3ccccc3C)C2)OC1=O (centres undefined)
3. Cn1c(O)c(C(=O)NC2CCCCC2)c(=O)n(C)c1=S
4. COCCNC1CCC2(SCCS2)c2[nH]c3ccccc3c21 (centres undefined)
5. O=C(CC(C(=O)c1cccs1)c1ccccc1)c1ccccc1O (centres undefined)

Output:
45.8
1.95
5.02
69.8
8

Here are 6 molecules. What values of GI50 were reported for them?
1. O=C(/C=C/c1ccsc1)c1ccc(Cl)s1
2. CCNc1nnc(CSc2nc(-c3ccccc3)c(-c3ccccc3)[nH]2)s1
3. COc1ccccc1/C=C1\Sc2scc(-c3ccc(O)c(O)c3)[n+]2C1=O
4. Cc1ccc(C2(O)CC(c3ccc([N+](=O)[O-])o3)=NN2C(=O)COc2ccccc2Cl)cc1 (centres undefined)
5. CC(C)NC(=O)OCc1c2c(n(C)c1COC(=O)NC(C)C)-c1ccccc1CC2
6. CCC(=O)Nc1ccc(N2C(=O)C(Cl)C2c2ccc(SC)cc2)cc1 (centres undefined)

Output:
[43.5, 18.3, 16.5, 4.68, 14, 98.2]

Need GI50 for each of these molecules.
1. CCN(CC)C1Oc2cc3c(cc2C(c2cc(OC)c(OC)c(OC)c2)C1C)OCO3 (centres undefined)
2. COc1ccc(C(=O)NCCC2CN(S(=O)(=O)C(F)(F)F)c3ccccc32)c(OC)c1 (centres undefined)

Output:
[0.518, 57.4]
